target: gC1qR-D1 (human) (UniProt Q07021); experiment: SPR; gC1qR proteins amine-coupled to a CMD200M chip (gC1qR 361 RU, D1 487 RU, D2 360 RU, DD 874 RU); HKH-20 injected 46.9 nM to 10 µM; 25°C, HBS-T (20 mM HEPES pH 7.4, 140 mM NaCl, 0.005% Tween-20); affinity (dose/response) model, apparent KD
property name: pKd
# pKd: negative log10 of molar concentration; output just the value

## Task Which pKd reading was recorded for the binder HKHGHGHGKHKNKGKKNGKH (The discussion speaks of peptides derived from HMWK residues 493-516 in general; also called HKH-20 peptide; source: synthetic peptide (GenScript)) [peptide HKH-20] ?
## Result 5.00
